Biological target: recombinant human PREP (Homo sapiens, UniProt P48147)
Construct: purchased R&D System
Sequence (P48147 whole entry): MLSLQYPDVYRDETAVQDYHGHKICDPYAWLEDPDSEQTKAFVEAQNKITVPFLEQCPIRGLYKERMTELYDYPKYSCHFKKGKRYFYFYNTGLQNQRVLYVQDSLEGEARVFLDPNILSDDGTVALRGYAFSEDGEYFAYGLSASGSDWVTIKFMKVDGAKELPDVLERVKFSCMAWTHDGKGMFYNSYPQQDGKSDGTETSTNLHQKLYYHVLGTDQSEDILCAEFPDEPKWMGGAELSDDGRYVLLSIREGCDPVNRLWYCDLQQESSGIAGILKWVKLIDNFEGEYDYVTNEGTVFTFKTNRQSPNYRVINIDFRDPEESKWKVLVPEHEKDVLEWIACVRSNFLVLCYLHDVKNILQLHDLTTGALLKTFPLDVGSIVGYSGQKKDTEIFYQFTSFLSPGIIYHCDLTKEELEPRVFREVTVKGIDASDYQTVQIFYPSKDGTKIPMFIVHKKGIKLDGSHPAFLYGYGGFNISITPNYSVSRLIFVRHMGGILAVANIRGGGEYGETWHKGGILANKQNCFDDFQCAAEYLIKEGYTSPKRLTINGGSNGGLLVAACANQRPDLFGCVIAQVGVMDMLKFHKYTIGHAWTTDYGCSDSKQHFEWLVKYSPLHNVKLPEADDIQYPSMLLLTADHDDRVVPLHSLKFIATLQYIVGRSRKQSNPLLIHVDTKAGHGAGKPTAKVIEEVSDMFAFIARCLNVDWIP
Assay: PREP inhibition, fluorogenic substrate Z-Gly-Pro-AMC
Type: biochemical
Conditions: Inhibitory Activity (IC50, nM) PREP, recombinant human PREP
attribute.measured: IC50 (nM)

Example compounds with recorded IC50:
>  <smiles.code>
N#C[C@@H]1C[C@H](F)CN1C(=O)CN1CC[C@H](Nc2ccc(C(F)(F)F)c3ncccc23)C1

>  <IC50 (nM)>
1730

$$$$
>  <smiles.code>
CNC(=O)c1ccc(NC2CCN(CC(=O)N3C[C@@H](F)C[C@H]3C#N)CC2)c2cccnc12

>  <IC50 (nM)>
1420

$$$$
>  <smiles.code>
COc1cnc2cccc(N[C@H]3CCN(CC(=O)N4C[C@@H](F)C[C@H]4C#N)C3)c2c1

>  <IC50 (nM)>
275

$$$$
>  <smiles.code>
Cc1ccc2ncccc2c1N[C@H]1CCN(CC(=O)N2C[C@@H](F)C[C@H]2C#N)C1

>  <IC50 (nM)>
2470

$$$$
>  <smiles.code>
Cc1cnc2ccc(N[C@@H]3CCN(CC(=O)N4C[C@@H](F)C[C@H]4C#N)C3)cc2c1

>  <IC50 (nM)>
2740

$$$$

P. N#C[C@@H]1C[C@H](F)CN1C(=O)CN1CC[C@H](Nc2cc(C(F)(F)F)cc3ncccc23)C1
Q. N#C[C@@H]1C[C@H](F)CN1C(=O)CN1CCC(Nc2cncc3c(Cl)cccc23)CC1
When P and Q are compared, which has the higher number for IC50? I would appreciate it if you answered with the label of your choice.
P

---

Biological target: DPP4 (Homo sapiens, UniProt P27487)
Sequence (P27487 whole entry): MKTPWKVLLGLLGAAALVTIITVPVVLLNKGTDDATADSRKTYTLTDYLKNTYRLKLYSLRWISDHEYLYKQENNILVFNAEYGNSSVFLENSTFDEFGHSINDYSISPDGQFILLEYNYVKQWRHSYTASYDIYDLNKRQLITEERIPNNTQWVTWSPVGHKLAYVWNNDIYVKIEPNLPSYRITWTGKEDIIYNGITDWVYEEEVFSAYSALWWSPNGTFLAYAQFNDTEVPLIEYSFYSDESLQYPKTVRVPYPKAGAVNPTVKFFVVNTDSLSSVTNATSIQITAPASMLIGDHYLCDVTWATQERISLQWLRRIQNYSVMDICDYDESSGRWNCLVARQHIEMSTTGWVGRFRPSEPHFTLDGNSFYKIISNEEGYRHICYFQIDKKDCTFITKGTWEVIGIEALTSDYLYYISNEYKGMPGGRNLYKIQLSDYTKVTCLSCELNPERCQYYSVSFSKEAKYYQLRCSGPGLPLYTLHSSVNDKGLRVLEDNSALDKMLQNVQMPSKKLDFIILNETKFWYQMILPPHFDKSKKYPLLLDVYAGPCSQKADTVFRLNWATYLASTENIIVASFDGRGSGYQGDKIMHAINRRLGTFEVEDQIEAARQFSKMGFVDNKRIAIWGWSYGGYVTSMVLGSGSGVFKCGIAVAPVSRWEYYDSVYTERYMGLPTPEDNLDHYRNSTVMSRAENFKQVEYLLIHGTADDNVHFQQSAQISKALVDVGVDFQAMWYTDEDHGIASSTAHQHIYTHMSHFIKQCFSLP
Test: DPP4 inhibition, fluorogenic substrate H-Gly-Pro-AMC
Format: biochemical
Design: purchased R&D Systems
Details: recombinant human DPP4
attribute.measured: IC50 (µM)

Example entries and their recorded answers appear below.
>  <compound>
COc1ccc2ncccc2c1N[C@H]1CCN(CC(=O)N2C[C@@H](F)C[C@H]2C#N)C1 [Example 260]

>  <attribute.measured>
IC50

>  <measured.result>
0.741

$$$$
>  <compound>
N#C[C@@H]1C[C@H](F)CN1C(=O)CN1CCC(Nc2cccc3c(Cl)nccc23)CC1 [Example 351]

>  <attribute.measured>
IC50

>  <measured.result>
6.73

$$$$
>  <compound>
N#C[C@@H]1C[C@H](F)CN1C(=O)CN1CC[C@H](Nc2cccc3ncc(Cl)cc23)C1 [Example 256]

>  <attribute.measured>
IC50

>  <measured.result>
1.88

$$$$
>  <compound>
N#C[C@@H]1CCCN1C(=O)CN1CCC(Oc2ccnc3cc(Cl)ccc23)CC1 [Example 428]

>  <attribute.measured>
IC50

>  <measured.result>
32.6

$$$$
>  <compound>
N#C[C@@H]1C[C@H](F)CN1C(=O)CN1CCC(Nc2ccc(C(F)(F)F)c3ncccc23)CC1 [Example 334]

>  <attribute.measured>
IC50

>  <measured.result>
7.76

$$$$
>  <compound>
Cc1cnc2ccc(N[C@@H]3CCN(CC(=O)N4C[C@@H](F)C[C@H]4C#N)C3)cc2c1 [Example 211]

>  <attribute.measured>
IC50

>  <measured.result>
1.8

$$$$
>  <compound>
Cc1ccc(N[C@@H]2CCN(CC(=O)N3CCC[C@H]3C#N)C2)c2cccnc12 [Example 200]

>  <attribute.measured>
IC50

>  <measured.result>
5.51

$$$$
>  <compound>
CN(C)C(=O)c1ccc(NC2CCN(CC(=O)N3C[C@@H](F)C[C@H]3C#N)CC2)c2cccnc12 [Example 391]

>  <attribute.measured>
IC50

>  <measured.result>
3.5

$$$$
>  <compound>
N#C[C@@H]1C[C@H](F)CN1C(=O)CN1CC[C@@H](Nc2cc(F)cc3ncccc23)C1 [Example 174]

>  <attribute.measured>
IC50

>  <measured.result>
3.02

$$$$

A. CNC(=O)c1ccc(NC2CCN(CC(=O)N3C[C@@H](F)C[C@H]3C#N)CC2)c2cccnc12 [Example 390]
B. COc1ccc(N[C@H]2CCN(CC(=O)N3C[C@@H](F)C[C@H]3C#N)C2)c2cccnc12 [Example 263]
C. N#C[C@@H]1CCCN1C(=O)CN1CC[C@@H](Nc2ccc(C(F)(F)F)c3ncccc23)C1 [Example 201]
Hello, I need these entries ordered by IC50, highest reading first. Thanks! Labels, requested order.
C, A, B

Attribution: patent US11655235B2
